Test system: HT-1080
Assay: Anti-invasive activity against human HT-1080 cells assessed as inhibition of cell invasive
QUANTITY_NAME: IC50

Answer with reported IC50 of CCCCCCCCCCCCCCCC(=O)C1=C(OCc2ccccc2)[C@@H](CO)OC1=O
3 µM

* * *

Test system: HT-1080
Assay: Antimigratory activity against human HT-1080 cells assessed as inhibition of cell migration
QUANTITY_NAME: IC50 (nM)
The response must be a number in nM with no trailing unit.

Retrieve IC50 on HT-1080; query CCCCCCCCCCCCCCCC(=O)C1=C(OCc2ccccc2)[C@@H](CO)OC1=O
3000

* * *

Assay: Anti-invasive activity against mouse Lewis lung carcinoma cell line assessed as inhibition of cell invasion incubated for 24 hrs by transwell assay
Assay type: functional, cell-based
QUANTITY_NAME: IC50 (µM)
Lab book: enter the figure in µM, no units written.

Provide one value: measured IC50 of Oc1c(I)cc(I)cc1-c1nn2c(-c3ccccc3)nnc2s1
5

All figures here come from ChEMBL document CHEMBL5244236.
